System: MM.1S cells
Assay: Inhibitory effect on the proliferation of MM.1S, MTS cell viability test
Assay type: cell-based
Details: Homo sapiens, MM1.S, 168 h, multiple myeloma MM.1S cells, 7 days incubation, read-out: Tumor cell inhibitory activity
pIC50: −log10 of the molar value.
Reported values of pIC50 for individual entries

[
  {
    "compound": "O=C1CCC(N2Cc3c(CCCCN4CCC5(CC4)OCc4ccc(Cl)cc45)cccc3C2=O)C(=O)N1 (stereo not drawn) [Example 151]",
    "pIC50": "6.00 to 7.00"
  },
  {
    "compound": "COc1ccc(C2(C#N)CCN(CCCCCc3cccc4c3CN(C3CCC(=O)NC3=O)C4=O)CC2)c(OC)c1 (stereo not drawn) [Example 255]",
    "pIC50": "4.70 to 6.00"
  },
  {
    "compound": "O=C1CCC(N2Cc3c(CCCCCN4CCC5(CCc6ccccc65)CC4)cccc3C2=O)C(=O)N1 (stereo not drawn) [Example 143]",
    "pIC50": "> 7.00"
  },
  {
    "compound": "O=C1CCC(N2Cc3c(OCCCN4CCN(c5cccc(Cl)c5Cl)CC4)cccc3C2=O)C(=O)N1 (stereo not drawn) [Example 238]",
    "pIC50": "6.00 to 7.00"
  },
  {
    "compound": "COc1ccc(C2(C#N)CCN(CCCCc3cccc4c3CN(C3CCC(=O)NC3=O)C4=O)CC2)c(OC)c1OC (stereo not drawn) [Example 253]",
    "pIC50": "4.70 to 6.00"
  },
  {
    "compound": "O=C1CCC(N2Cc3c(OCCCCCCOc4ccnc5ccccc45)cccc3C2=O)C(=O)N1 (stereo not drawn) [Example 14]",
    "pIC50": "> 7.00"
  },
  {
    "compound": "O=C1CCC(N2Cc3c(CCCCCN4CCN(c5ccccc5)CC4)cccc3C2=O)C(=O)N1 (stereo not drawn) [Example 18]",
    "pIC50": "> 7.00"
  },
  {
    "compound": "CC(=O)N[C@@H](CCCc1cccc2c1CN(C1CCC(=O)NC1=O)C2=O)C(=O)Nc1ccccc1 (stereo partly drawn) [Example 164]",
    "pIC50": "> 7.00"
  },
  {
    "compound": "N#CC1(c2ccccc2Cl)CCN(CCCCCCc2cccc3c2CN(C2CCC(=O)NC2=O)C3=O)CC1 (stereo not drawn) [Example 98]",
    "pIC50": "> 7.00"
  },
  {
    "compound": "Cc1ccccc1N1CCN(CCCCc2cccc3c2CN(C2CCC(=O)NC2=O)C3=O)CC1 (stereo not drawn) [Example 217]",
    "pIC50": "> 7.00"
  },
  {
    "compound": "C[C@]1(N2Cc3c(OCCCN4CCC(C#N)(c5cccc(OC(F)(F)F)c5)CC4)cccc3C2=O)CCC(=O)NC1=O [Example 60]",
    "pIC50": "4.70 to 6.00"
  },
  {
    "compound": "Cc1ccc(NC(=O)CCCOc2cccc3c2CN(C2CCC(=O)NC2=O)C3=O)cc1Cl (stereo not drawn) [Example 158]",
    "pIC50": "> 7.00"
  },
  {
    "compound": "O=C1CCC(N2Cc3c(OCCCCC(=O)N4CCc5ccccc54)cccc3C2=O)C(=O)N1 (stereo not drawn) [Example 118]",
    "pIC50": "> 7.00"
  },
  {
    "compound": "CC(=O)N[C@@H](CCCc1cccc2c1CN(C1CCC(=O)NC1=O)C2=O)C(=O)NCc1ccc(Oc2ccccc2)cc1 (stereo partly drawn) [Example 192]",
    "pIC50": "6.00 to 7.00"
  },
  {
    "compound": "Cc1cc(OCCCCOc2cccc3c2C(=O)N(C2CCC(=O)NC2=O)C3=O)c2ccccc2n1 (stereo not drawn) [Example 108]",
    "pIC50": "4.70 to 6.00"
  }
]
